Target: APOL1 G2 (Homo sapiens, UniProt O14791, DEL388-389)
Construct: expressed in transfected cells; host or cells: HEK293 T-REx clonal line stably expressing GCaMP6f (HEK T-REx/GCaMP6f/APOL1 G2 K6.3), doxycycline induced
Sequence (O14791 with tags, fused parts or gaps DEL388-389): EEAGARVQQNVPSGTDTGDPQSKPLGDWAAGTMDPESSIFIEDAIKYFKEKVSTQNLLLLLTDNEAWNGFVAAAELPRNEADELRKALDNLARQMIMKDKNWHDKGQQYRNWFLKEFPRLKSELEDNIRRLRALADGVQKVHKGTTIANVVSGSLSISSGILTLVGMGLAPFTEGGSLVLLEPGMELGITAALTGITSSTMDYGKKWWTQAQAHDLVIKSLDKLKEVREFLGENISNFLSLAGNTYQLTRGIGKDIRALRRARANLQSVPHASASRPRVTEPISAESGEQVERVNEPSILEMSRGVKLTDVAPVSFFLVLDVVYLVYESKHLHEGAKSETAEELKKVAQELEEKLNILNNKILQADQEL
Assay: APOL1-mediated calcium transport (calcium influx) assay, HEK T-REx/GCaMP6f/APOL1 G2 K6.3 cells, FLIPR TETRA
Format: cell-based
Details: prevention of calcium influx; geometric mean of at least 2 assay runs; † = average of a technical replicate from a single assay run
Field: AC50. Provide a value for each of the compounds that follow.
Provide only the numeric value, understood in nM.

Would you mind telling me what AC50 value was observed for N#Cc1ccc2c(c1)C1(CCN(CCOc3ccc(C4CCCS4(=O)=O)cc3)CC1)C(=O)N2 (stereo not shown) ? 550

# query: AC50 of entry CC1(S(=O)(=O)c2ccc(OCCN3CCC4(CC3)C(=O)Nc3ccc(C#N)cc34)cc2)COC1 951

What value of AC50 has been reported for the following compound? CC(=O)N1CCCc2cc(OCCN3CCC4(CC3)C(=O)Nc3ccc(C#N)cc34)cnc21 549

# lookup: AC50 of CN1C(=O)C2(CCN(CCOc3ccc4c(c3)CCS4(=O)=O)CC2)c2ccccc21 262

Consider the compound CS(=O)(=O)c1c(F)cc(OCCN2CCC3(CC2)C(=O)Nc2ccc(Cl)cc23)cc1F and give its measured AC50. 463

Would you mind telling me what AC50 value was observed for N#Cc1ccc2c(c1)C1(CCN(CCOc3ccc4c(c3)CCN3C(=O)CCC43)CC1)C(=O)N2 (single isomer, unassigned) [Compound 126] ? 624

Give its AC50 value. Item: CS(=O)(=O)c1ccc(OCCN2CCCC3(CC2)C(=O)Nc2ccccc23)cc1 (stereo not shown) 943
